# System: BT-549 breast
# testProtocol: NCI-60 one-dose screen, 48 h (100 = growth as untreated, 0 = no growth, -100 = all killed)
# conditionNotes: 10 µM unless noted
This is part of a sample that, as a whole, favours compounds with a hit. Of some 83,000 tested, about 20% had one in any assay.
Provide the recorded growth for the entries that follow.
Answers are plain numbers, in %.

In the examples that follow, each entry is paired with its recorded growth.
CC(C)CCN(CCCNc1c2c(nc3ccccc13)CCCC2)CCC(C)C
91.3
CS(=O)(=O)N(c1cc(-c2ccc3ncnc(Nc4cccc(Cl)c4)c3c2)cnc1Cl)S(C)(=O)=O
-8.61
O=C(O)c1cccc([N+](=O)[O-])c1/C=C/c1ccccc1
106

Each compound below has a recorded value; state its growth.
1. COc1cc2c(cc1OCCCCn1c(-c3cc(=O)c4ccccc4o3)nc3ccccc31)N=C[C@@H]1CCCN1C2=O
2. NCCSC(c1ccccc1)(c1ccccc1)c1ccccc1

**A:**
101
22.1

Where do these numbers come from? They come from PubChem BioAssay (NCI).
